- targetEntity: hCA IX (Homo sapiens, UniProt Q16790)
- Construct: made in house
- procedureText: stopped-flow CO2 hydrase assay, hCA IX
- Format: biochemical
- assayContext: hCA IX over off-target hCA I
We begin with a simple list: items and their reported Selectivity index (SI) I/IX.
When you answer, write just the number.

{"compound": "N#C/C(=C\\c1ccc2c(c1)OCO2)c1nc(N)nc(Nc2ccc(S(N)(=O)=O)cc2)n1 [Compound 12e]", "measuredResult": 4}
{"compound": "CC1(C)N=C(N)N=C(N)N1c1ccc(S(N)(=O)=O)cc1 [Compound 5a]", "measuredResult": 6.7}
{"compound": "CC1CCC2(CC1)N=C(N)N=C(Nc1ccc(S(N)(=O)=O)cc1)N2 (stereo not shown) [Compound 8c]", "measuredResult": 0.3}
{"compound": "N#C/C(=C\\c1ccccc1)c1nc(N)nc(Nc2ccc(S(N)(=O)=O)cc2)n1 [Compound 12a]", "measuredResult": 2.3}
{"compound": "NC1=NC2(CCCC2)N(c2ccc(S(N)(=O)=O)cc2)C(N)=N1 [Compound 6a]", "measuredResult": 0.6}
{"compound": "NC1=NC2(CCCCC2)NC(Nc2ccc(S(N)(=O)=O)cc2)=N1 [Compound 8b]", "measuredResult": 0.2}
{"compound": "N#C/C(=C\\c1cccc(Cl)c1)c1nc(N)nc(Nc2ccc(S(N)(=O)=O)cc2)n1 [Compound 12h]", "measuredResult": 9.7}
{"compound": "NC1=NC2(CCCCC2)N(c2ccc(S(N)(=O)=O)cc2)C(N)=N1 [Compound 6b]", "measuredResult": 0.4}

Response field Selectivity index (SI) I/IX (hCA IX (Homo sapiens, UniProt Q16790)) for item NC1=NC2(CCCC2)NC(Nc2ccc(S(N)(=O)=O)cc2)=N1 [Compound 8a] : 0.1

Response field Selectivity index (SI) I/IX (hCA IX (Homo sapiens, UniProt Q16790)) for item N#C/C(=C\c1cccc(Br)c1)c1nc(N)nc(Nc2ccc(S(N)(=O)=O)cc2)n1 [Compound 12b] : 2.5

Response field Selectivity index (SI) I/IX (hCA IX (Homo sapiens, UniProt Q16790)) for item CC1CCC2(CC1)N=C(N)N=C(N)N2c1ccc(S(N)(=O)=O)cc1 (stereo not shown) [Compound 6c] : 0.1

Response field Selectivity index (SI) I/IX (hCA IX (Homo sapiens, UniProt Q16790)) for item Cc1ccc(/C=C(\C#N)c2nc(N)nc(Nc3ccc(S(N)(=O)=O)cc3)n2)cc1 [Compound 12g] : 0.8

Response field Selectivity index (SI) I/IX (hCA IX (Homo sapiens, UniProt Q16790)) for item N#C/C(=C\c1ccc(F)cc1)c1nc(N)nc(Nc2ccc(S(N)(=O)=O)cc2)n1 [Compound 12f.] : 3

---

- Tested on: Breast cancer (MDA-MB-468)
- procedureText: NCI single dose SRB screen, MDA-MB-468
- Assay type: cell-based
- assayContext: Homo sapiens, MDA-MB-468, 48 h, 10^−5 M single dose, 48 h, SRB; read-out: GI% Breast cancer (MDA-MB-468)
attributeMeasured: inhibition at 10 µM

Example compounds with recorded inhibition at 10 µM:
{"compound": "CC1CCC2(CC1)N=C(N)N=C(N)N2c1ccc(S(=O)(=O)Nc2ccccn2)cc1 (stereo not drawn)", "targetEntity": "Breast cancer (MDA-MB-468)", "inhibition at 10 µM": "≤ 10%"}
{"compound": "NC1=NC2(CCCCC2)N(c2ccc(S(=O)(=O)Nc3ccccn3)cc2)C(N)=N1", "targetEntity": "Breast cancer (MDA-MB-468)", "inhibition at 10 µM": "≤ 10%"}

Attention now shifts to the item below.
Notebook: N#C/C(=C\c1ccccc1)c1nc(N)nc(Nc2ccc(S(N)(=O)=O)cc2)n1 [Compound 12a] , inhibition at 10 µM read as ≤ 10%
